// provenance: patent US6583147B1

Tested on: rats
protocol_notes: Penile erection test using rats
Format: in vivo, rat
protocol_conditions: oral single dose 10 mg/kg in 0.5% methyl cellulose, observed for 2 hours
Using PEI (penile erection index) as the sorting value, the categories are label 0 (below 100), label 1 (100 to below 200), label 2 (200 or more)

{"columns": ["molecule", "label"],
 "data": [
  ["CCCc1nn(CC)c2c(=O)[nH]c(-c3cc(S(=O)(=O)Nc4ccc(C(C)(C)C)cc4)ccc3OCC)nc12 [Example 29]", "label 2"],
  ["CCCc1nn(C)c2c(=O)[nH]c(-c3cc(S(=O)(=O)Nc4ccc(C(C)C)cc4)ccc3OCC)nc12 [Example 31]", "label 2"],
  ["CCCc1nn(CC)c2c(=O)[nH]c(-c3cc(S(=O)(=O)NC(C)C)ccc3OCC)nc12 [Example 5]", "label 2"],
  ["CCCc1nn(C)c2c(=O)[nH]c(-c3cc(S(=O)(=O)Nc4cc(C)cc(C)c4)ccc3OCC)nc12 [Example 32]", "label 0"],
  ["CCCOc1ccc(S(=O)(=O)NCC2CCN(C)C2)cc1-c1nc2c(CCC)nn(C)c2c(=O)[nH]1 (stereo not drawn) [Example 60]", "label 2"],
  ["CCOc1ccc(S(=O)(=O)NC2CCN(C)C2)cc1-c1nc2c(CC(C)C)nn(C)c2c(=O)[nH]1 (stereo not drawn) [Example 54]", "label 2"],
  ["CCCc1nn(C)c2c(=O)[nH]c(-c3cc(S(=O)(=O)Nc4ccc(C)cc4)ccc3OCC)nc12 [Example 27]", "label 0"],
  ["CCOc1ccc(S(=O)(=O)NC2CC2)cc1-c1nc2c(CC(C)C)nn(C)c2c(=O)[nH]1 [Example 15]", "label 1"],
  ["CCCOc1ccc(S(=O)(=O)NCc2ccccc2)cc1-c1nc2c(CCC)nn(C)c2c(=O)[nH]1 [Example 23]", "label 2"],
  ["CCCc1nn(CC)c2c(=O)[nH]c(-c3cc(S(=O)(=O)NCc4ccccc4)ccc3OCC)nc12 [Example 24]", "label 2"],
  ["CCCc1nn(C)c2c(=O)[nH]c(-c3cc(S(=O)(=O)NCc4ccccn4)ccc3OCC)nc12 [Example 50]", "label 0"],
  ["CCOc1ccc(S(=O)(=O)Nc2ccc(C(C)(C)C)cc2)cc1-c1nc2c(CC(C)C)nn(C)c2c(=O)[nH]1 [Example 30]", "label 1"],
  ["CCCc1nn(CC)c2c(=O)[nH]c(-c3cc(S(=O)(=O)NCC4CCN(CC)C4)ccc3OCC)nc12 (stereo not drawn) [Example 65]", "label 0"],
  ["CCCc1nn(C)c2c(=O)[nH]c(-c3cc(S(=O)(=O)Nc4ccc(C(C)(C)C)cc4)ccc3OCC)nc12 [Example 28]", "label 2"],
  ["CCOc1ccc(S(=O)(=O)Nc2cccnc2)cc1-c1nc2c(CC(C)C)nn(C)c2c(=O)[nH]1 [Example 41]", "label 1"],
  ["CCCc1nn(C)c2c(=O)[nH]c(-c3cc(S(=O)(=O)Nc4cccnc4)ccc3OCC)nc12 [Example 38]", "label 2"],
  ["CCOc1ccc(S(=O)(=O)NCC2CCCN2C)cc1-c1nc2c(CC(C)C)nn(C)c2c(=O)[nH]1 (stereo not drawn) [Example 58]", "label 2"],
  ["CCCc1nn(C)c2c(=O)[nH]c(-c3cc(S(=O)(=O)NCC4CCCN4C)ccc3OCC)nc12 (stereo not drawn) [Example 55]", "label 2"],
  ["CCOc1ccc(S(=O)(=O)Nc2ccncc2)cc1-c1nc2c(CC(C)C)nn(C)c2c(=O)[nH]1 [Example 37]", "label 1"],
  ["CCCOc1ccc(S(=O)(=O)NC(C)C)cc1-c1nc2c(CCC)nn(C)c2c(=O)[nH]1 [Example 3]", "label 2"],
  ["CCCc1nn(CC)c2c(=O)[nH]c(-c3cc(S(=O)(=O)NCCC4CCCN4C)ccc3OCC)nc12 (stereo not drawn) [Example 69]", "label 2"],
  ["CCCc1nn(CC)c2c(=O)[nH]c(-c3cc(S(=O)(=O)NCC4CCN(C)C4)ccc3OCC)nc12 (stereo not drawn) [Example 61]", "label 0"],
  ["CCCOc1ccc(S(=O)(=O)Nc2cccnc2)cc1-c1nc2c(CCC)nn(C)c2c(=O)[nH]1 [Example 39]", "label 1"],
  ["CCCc1nn(C)c2c(=O)[nH]c(-c3cc(S(=O)(=O)Nc4ccccn4)ccc3OCC)nc12 [Example 42]", "label 0"],
  ["CCCOc1ccc(S(=O)(=O)NCc2ccccn2)cc1-c1nc2c(CCC)nn(C)c2c(=O)[nH]1 [Example 52]", "label 2"],
  ["CCCc1nn(C)c2c(=O)[nH]c(-c3cc(S(=O)(=O)NCC4CCN(CC)C4)ccc3OCC)nc12 (stereo not drawn) [Example 63]", "label 0"]
]}
